Quick list: pIC50 per entry.
target: PDK1 enzyme (Homo sapiens); assay: PDK1 3'-phosphoinositide-dependent kinase assay, phosphorylation of synthetic peptide (33P-ATP filtration); assay type: biochemical; conditions: Table 2; 0.01 mM ATP; read-out: PDK1 IC50
Sequence (O15530 whole entry): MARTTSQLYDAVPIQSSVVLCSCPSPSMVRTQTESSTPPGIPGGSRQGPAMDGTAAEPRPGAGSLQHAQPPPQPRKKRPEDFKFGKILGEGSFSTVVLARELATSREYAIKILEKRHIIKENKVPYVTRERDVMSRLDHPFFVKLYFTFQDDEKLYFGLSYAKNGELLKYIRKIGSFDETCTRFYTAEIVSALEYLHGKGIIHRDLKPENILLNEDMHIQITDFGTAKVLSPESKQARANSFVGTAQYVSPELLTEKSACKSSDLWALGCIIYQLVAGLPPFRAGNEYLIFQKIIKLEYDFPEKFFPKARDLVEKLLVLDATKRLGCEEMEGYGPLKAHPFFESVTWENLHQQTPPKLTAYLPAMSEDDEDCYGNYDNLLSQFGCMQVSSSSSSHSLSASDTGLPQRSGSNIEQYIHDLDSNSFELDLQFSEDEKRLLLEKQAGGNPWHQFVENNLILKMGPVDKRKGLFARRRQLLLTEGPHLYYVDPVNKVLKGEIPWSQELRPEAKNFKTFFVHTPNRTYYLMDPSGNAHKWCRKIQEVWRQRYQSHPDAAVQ
pIC50: −log10 of the molar value.

Some molecules with recorded pIC50:
| COMPOUND STRUCTURE | MEASURED QUANTITY | RECORDED VALUE |
| --- | --- | --- |
| CS(=O)(=O)c1ccc(Nc2cc(NC3CCCC3)nc3ncnn23)cc1 | pIC50 | < 3.70 |
| CS(=O)(=O)c1ccc(Nc2cc(N)nc3ncnn23)cc1 | pIC50 | < 3.70 |
| CN1CCN(c2cc(Nc3ccc(S(C)(=O)=O)cc3)n3ncnc3n2)CC1 | pIC50 | < 3.70 |
| CC[C@H](CO)Nc1cc(NCc2ccccc2)n2ncnc2n1 | pIC50 | < 3.70 |

Query: Which pIC50 is reported for this molecule? CS(=O)(=O)c1ccc(Nc2cc(N[C@H]3CC[C@H](N)CC3)nc3ncnn23)cc1
Reply: 3.97

Query: Which pIC50 is reported for this molecule? CN(C)CCN(C)c1cc(Nc2ccc(S(C)(=O)=O)cc2)n2ncnc2n1
Reply: < 3.70
